- tgt: T1, Stt3 (S. cerevisiae, UniProt P39007 1-718, N-glycan at Asn539)
- T1 sequence (looked up): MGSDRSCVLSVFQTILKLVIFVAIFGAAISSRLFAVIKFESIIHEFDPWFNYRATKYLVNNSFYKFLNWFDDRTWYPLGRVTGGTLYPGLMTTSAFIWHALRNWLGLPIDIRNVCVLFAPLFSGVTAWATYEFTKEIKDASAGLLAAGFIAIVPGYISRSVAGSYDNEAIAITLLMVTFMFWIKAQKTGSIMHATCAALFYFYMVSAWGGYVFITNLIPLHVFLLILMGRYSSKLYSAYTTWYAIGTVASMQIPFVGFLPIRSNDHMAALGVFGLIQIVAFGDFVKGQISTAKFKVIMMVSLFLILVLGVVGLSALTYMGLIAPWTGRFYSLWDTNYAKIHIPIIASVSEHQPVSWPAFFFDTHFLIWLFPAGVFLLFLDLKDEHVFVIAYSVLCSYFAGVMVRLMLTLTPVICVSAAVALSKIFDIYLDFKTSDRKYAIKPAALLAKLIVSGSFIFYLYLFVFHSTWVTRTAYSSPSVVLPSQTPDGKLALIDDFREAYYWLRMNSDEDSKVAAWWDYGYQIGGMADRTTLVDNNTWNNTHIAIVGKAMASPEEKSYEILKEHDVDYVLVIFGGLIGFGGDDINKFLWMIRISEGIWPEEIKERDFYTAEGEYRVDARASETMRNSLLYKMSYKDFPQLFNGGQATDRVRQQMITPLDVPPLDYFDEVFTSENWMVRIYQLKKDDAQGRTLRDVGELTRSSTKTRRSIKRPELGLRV
- assayInfo: cryo-EM structure
readoutName: binding result

Ost3 (natural protein, S. cerevisiae, UniProt P48439 23-350, looked up) MSSNRLLKLANKSPKKIIPLKDSSFENILAPPHENAYIVALFTATAPEIGCSLCLELESEYDTIVASWFDDHPDAKSSNSDTSIFFTKVNLEDPSKTIPKAFQFFQLNNVPRLFIFKPNSPSILDHSVISISTDTGSERMKQIIQAIKQFSQVNDFSLHLPMDWTPIITSTIITFITVLLFKKQSKLMFSIISSRIIWATLSTFFIICMISAYMFNQIRNTQLAGVGPKGEVMYFLPNEFQHQFAIETQVMVLIYGTLAALVVVLVKGIQFLRSHLYPETKKAYFIDAILASFCALFIYVFFAALTTVFTIKSPAYPFPLLRLSAPFK
binds
